B1: VH:VL chains; a variant is named by its letters at X, in order (parent)
chain 1: QVQLVQSGAEVKKPGASVKVSCKASGYTFTDYXMHWVRQAPGQGLEWMGXVNPNXXXTTYNQKFEGRVTMTTDTSTSTAYMELRSLRSDDTAVYYCARXNXLDXWGQGTTVTVSS
chain 2: DIQMTQSPSSLSASVGDRVTITCSVSSSVSSIYLHWYQQKPGKAPKLLIYSTSNLASGVPSRFSGSGSGTDFTLTISSLQPEDFATYYCQVYSGYPLTFGGGTKVEIK

- Variants of: B1
- assay-summary: yeast display scFab, FACS + sequencing
reported-metric: non-specific binding call

Some variants with known non-specific binding call results, for comparison:
[
  {
    "mutant-id": "ATKAASWV",
    "result": "no binding"
  },
  {
    "mutant-id": "VRTEDALV",
    "result": "no binding"
  },
  {
    "mutant-id": "YREGGFAA",
    "result": "binds"
  },
  {
    "mutant-id": "YEKGGDVY",
    "result": "no binding"
  },
  {
    "mutant-id": "VKGRSVGY",
    "result": "binds"
  }
]

Q: Given the entry DEKEGDAA , report its measured non-specific binding call.
Ans: no binding

Q: Given the entry DRTGDSSS , report its measured non-specific binding call.
Ans: no binding
